System: WHIM30 (cells of a triple-negative basal-like breast cancer xenograft)
method_notes: cell viability (% of vehicle); higher = less cytotoxic;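 note: PDX cells carrying CMV promoter-driven luciferase, viability read as total photon flux per second by IVIS imaging following D-luciferin, vehicle control 0.1% DMSO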
run_parameters: 10 µM; 72 h
Listed next: entries and their corresponding cell viability.
readout_name: cell viability

- compound: "N#CC1CC2CC2N1C(=O)C(N)C12CC3CC(CC(O)(C3)C1)C2 (stereo not drawn) [Saxagliptin]"
  system_name: "WHIM30"
  readout_name: "cell viability"
  measured_result: 98
- compound: "CCN(CCO)CCCC(C)Nc1ccnc2cc(Cl)ccc12.O=S(=O)(O)O (stereo not drawn) [Hydroxychloroquine Sulfate]"
  system_name: "WHIM30"
  readout_name: "cell viability"
  measured_result: 102
- compound: "C#CC1(O)CCC2C3CCc4cc(O)ccc4C3CCC21C (stereo not drawn) [Ethinyl Estradiol]"
  system_name: "WHIM30"
  readout_name: "cell viability"
  measured_result: 109
- compound: "Clc1ccc(C(Cn2ccnc2)OCc2ccsc2Cl)c(Cl)c1 (stereo not drawn) [Tioconazole]"
  system_name: "WHIM30"
  readout_name: "cell viability"
  measured_result: 100
- compound: "Cc1ccc(F)c(NC(=O)Nc2ccc(-c3cccc4[nH]nc(N)c34)cc2)c1 [Linifanib (ABT-869)]"
  system_name: "WHIM30"
  readout_name: "cell viability"
  measured_result: 139
- compound: "COc1ccccc1N1CCN(CC(O)COc2cccc3ccccc23)CC1 (stereo not drawn) [Naftopidil]"
  system_name: "WHIM30"
  readout_name: "cell viability"
  measured_result: 104
- compound: "CCCCCCCCc1ccc(CCC(N)(CO)CO)cc1.Cl [Fingolimod (FTY720)]"
  system_name: "WHIM30"
  readout_name: "cell viability"
  measured_result: 82.5
- compound: "CC(C)NCC(O)c1ccc(NS(C)(=O)=O)cc1.Cl (stereo not drawn) [Sotalol hydrochloride]"
  system_name: "WHIM30"
  readout_name: "cell viability"
  measured_result: 118

----------
Test system: HCI16 (cells of a triple-negative basal-like breast cancer xenograft)
method_notes: cell viability (% of vehicle); higher = less cytotoxic
run_parameters: 10 µM; 72 h
Field: label. Allowed values: satisfied (cell viability < 100) or not satisfied (cell viability >= 100).

- compound: "COc1c(N2CC3CCCNC3C2)c(F)cc2c(=O)c(C(=O)O)cn(C3CC3)c12.Cl (stereo unspecified) [Moxifloxacin HCl]"
  class_label: "not satisfied"
- compound: "Nc1nc(NC2CC2)c2ncn(C3C=CC(CO)C3)c2n1.O=S(=O)(O)O (stereo unspecified) [Abacavir sulfate]"
  class_label: "not satisfied"
- compound: "CCC(CC)C(NC(C)=O)C1C(N=C(N)N)CC(C(=O)O)C1O (stereo unspecified)"
  class_label: "satisfied"
- compound: "COc1ccc(CNc2nc(N3CCCC3CO)ncc2C(=O)NCc2ncccn2)cc1Cl (stereo unspecified)"
  class_label: "not satisfied"
- compound: "CC(=O)C1(O)Cc2c(O)c3c(c(O)c2C(OC2CC(N)C(O)C(C)O2)C1)C(=O)c1ccccc1C3=O.Cl (stereo unspecified) [Idarubicin HCl]"
  class_label: "satisfied"
- compound: "O=c1oc2c(O)c(O)cc3c(=O)oc4c(O)c(O)cc1c4c23"
  class_label: "not satisfied"
- compound: "CNCCC(Oc1ccccc1C)c1ccccc1.Cl (stereo unspecified) [Atomoxetine HCl]"
  class_label: "not satisfied"
- compound: "Cc1ccccc1C(OCCN(C)C)c1ccccc1.O=C(O)CC(O)(CC(=O)O)C(=O)O (stereo unspecified) [Orphenadrine Citrate]"
  class_label: "not satisfied"
- compound: "CC1=C(C(=O)OC(C)C)C(c2cccc([N+](=O)[O-])c2)C(C(=O)OC2CN(C(c3ccccc3)c3ccccc3)C2)=C(N)N1 (stereo unspecified)"
  class_label: "satisfied"
- compound: "Cl.OC(c1cc(C(F)(F)F)nc2c(C(F)(F)F)cccc12)C1CCCCN1 (stereo unspecified) [Mefloquine hydrochloride]"
  class_label: "satisfied"
- compound: "CC(=O)c1c(C)c2cnc(Nc3ccc(N4CCNCC4)cn3)nc2n(C2CCCC2)c1=O.O=S(=O)(O)CCO"
  class_label: "not satisfied"
- compound: "CC(COc1ccccc1)N(CCCl)Cc1ccccc1.Cl (stereo unspecified) [Phenoxybenzamine HCl]"
  class_label: "not satisfied"
- compound: "Cc1ccc(Cl)c(Nc2ccccc2C(=O)[O-])c1Cl.[Na+] [Meclofenamate Sodium]"
  class_label: "not satisfied"
- compound: "CCN(Cc1ccncc1)C(=O)C(CO)c1ccccc1 (stereo unspecified) [Tropicamide]"
  class_label: "not satisfied"
- compound: "CN(C)c1ccc(C(=C2C=CC(=[N+](C)C)C=C2)c2ccc(N(C)C)cc2)cc1.[Cl-]"
  class_label: "satisfied"
- compound: "COc1cc(Nc2ncc(F)c(Nc3ccc4c(n3)N(COP(=O)([O-])[O-])C(=O)C(C)(C)O4)n2)cc(OC)c1OC.[Na+].[Na+] [R788 disodium]"
  class_label: "satisfied"
- compound: "CC[N+](CC)(CC)CCOc1cccc(OCC[N+](CC)(CC)CC)c1OCC[N+](CC)(CC)CC.[I-].[I-].[I-] [Gallamine Triethiodide]"
  class_label: "satisfied"
- compound: "CC(C)OC(=O)OCOP(=O)(COC(C)Cn1cnc2c(N)ncnc21)OCOC(=O)OC(C)C.O=C(O)C=CC(=O)O (stereo unspecified) [Tenofovir Disoproxil Fumarate]"
  class_label: "not satisfied"
- compound: "CCOC(=O)c1c(CSc2ccccc2)n(C)c2cc(Br)c(O)c(CN(C)C)c12.Cl [Arbidol HCl]"
  class_label: "satisfied"
- compound: "CCC1(c2ccccc2)C(=O)NCNC1=O"
  class_label: "not satisfied"
- compound: "CCOc1ccc(Cc2cc(C3OC(CO)C(O)C(O)C3O)ccc2Cl)cc1 (stereo unspecified)"
  class_label: "not satisfied"
- compound: "CC(c1cc2ccccc2s1)N(O)C(N)=O (stereo unspecified)"
  class_label: "not satisfied"
- compound: "NC(=O)C(CCC(F)(F)F)N(Cc1ccc(-c2ncon2)cc1F)S(=O)(=O)c1ccc(Cl)cc1 (stereo unspecified)"
  class_label: "satisfied"
- compound: "CC1(C)SC2C(NC(=O)C(C(=O)[O-])c3ccccc3)C(=O)N2C1C(=O)[O-].[Na+].[Na+] (stereo unspecified) [Carbenicillin, Disodium Salt]"
  class_label: "not satisfied"
- compound: "CN(C)CCc1c[nH]c2ccc(CS(=O)(=O)N3CCCC3)cc12.O=C(O)CC(O)C(=O)O [Almotriptan Malate]"
  class_label: "not satisfied"
- compound: "C=CCc1cc(OC)c(O)c(C(=O)NCCO)c1 [Alibendol]"
  class_label: "not satisfied"
- compound: "C=C1C(CO)C(O)CC1n1cnc2c(=O)nc(N)[nH]c21.O (stereo unspecified) [Entecavir Hydrate]"
  class_label: "not satisfied"
- compound: "CN(CC=CC#CC(C)(C)C)Cc1cccc2ccccc12.Cl [Terbinafine HCl]"
  class_label: "not satisfied"
